Data provenance is ChEMBL document CHEMBL1146032.

measured.on: Nociceptin receptor (Rattus norvegicus)
protocol.text: Activity against LFES-evoked contraction of Wistar rat vas deferens relative to N/OFQ(1-13)NH2 in presence of naloxone
Format: functional, tissue-based
Where a SMILES comes first, the peptide text is derived from it. [ ]: non-standard residue; d: D form. Dap = NC[C@H](N)C(=O)O
readout.label: Activity
Give only the figure.

Prompt line: Which Activity value belongs to `C[C@H](NC(=O)CNC(=O)[C@@H](NC(=O)[C@H](Cc1ccccc1)NC(=O)CNC(=O)CNC(=O)[C@@H](N)Cc1ccccc1)[C@@H](C)O)C(=O)N[C@@H](CCCNC(=N)N)C(=O)N[C@@H](CCCCN)C(=O)N[C@@H](CO)C(=O)N[C@@H](C)C(=O)N[C@@H](CCCNC(=N)N)C(=O)N[C@@H](CCCCN)C(N)=O` ?
Response line: 1

Prompt line: Which Activity value belongs to C[C@H](NC(=O)CNC(=O)[C@@H](NC(=O)[C@H](Cc1ccccc1)NC(=O)CNC(=O)CNC(=O)[C@@H](N)Cc1ccccc1)[C@@H](C)O)C(=O)N[C@@H](CCCN=C(N)N)C(=O)N[C@@H](CN)C(=O)N[C@@H](CO)C(=O)N[C@@H](C)C(=O)N[C@@H](CCCN=C(N)N)C(=O)N[C@@H](CN)C(N)=O (H-FGGFTGAR[Dap]SAR[Dap]-NH2) ?
Response line: 0.06

Prompt line: Which Activity value belongs to `C[C@H](NC(=O)CNC(=O)[C@@H](NC(=O)[C@H](Cc1ccccc1)NC(=O)CNC(=O)CNC(=O)[C@@H](N)Cc1ccccc1)[C@@H](C)O)C(=O)N[C@@H](CCCN=C(N)N)C(=O)N[C@@H](CCCCN)C(=O)N[C@@H](CO)C(=O)N[C@@H](C)C(=O)N[C@@H](CCCN=C(N)N)C(=O)N[C@@H](CCCN)C(N)=O` ?
Response line: 0.04

Prompt line: Which Activity value belongs to `C[C@H](NC(=O)CNC(=O)[C@@H](NC(=O)[C@H](Cc1ccccc1)NC(=O)CNC(=O)CNC(=O)[C@@H](N)Cc1ccccc1)[C@@H](C)O)C(=O)N[C@@H](CCCN=C(N)N)C(=O)N[C@@H](CCCN)C(=O)N[C@@H](CO)C(=O)N[C@@H](C)C(=O)N[C@@H](CCCN=C(N)N)C(=O)N[C@@H](CCCN)C(N)=O` ?
Response line: 2.45

Prompt line: Which Activity value belongs to `C[C@H](NC(=O)CNC(=O)[C@@H](NC(=O)[C@H](Cc1ccccc1)NC(=O)CNC(=O)CNC(=O)[C@@H](N)Cc1ccccc1)[C@@H](C)O)C(=O)N[C@@H](CCCN=C(N)N)C(=O)N[C@@H](CCCN)C(=O)N[C@@H](CO)C(=O)N[C@@H](C)C(=O)N[C@@H](CCCN=C(N)N)C(=O)N[C@@H](CCCCN)C(N)=O` ?
Response line: 1.56

====

measured.on: Nociceptin receptor (Rattus norvegicus)
protocol.text: Activity against LFES-evoked contraction of Wistar rat vas deferens
Assay type: functional, tissue-based
Where a SMILES comes first, the peptide text is derived from it. [ ]: non-standard residue; d: D form. Dap = NC[C@H](N)C(=O)O
readout.label: Emax (%)
Number in %, nothing else.

Prompt line: Identify the measured Emax of `C[C@H](NC(=O)CNC(=O)[C@@H](NC(=O)[C@H](Cc1ccccc1)NC(=O)CNC(=O)CNC(=O)[C@@H](N)Cc1ccccc1)[C@@H](C)O)C(=O)N[C@@H](CCCN=C(N)N)C(=O)N[C@@H](CCCN)C(=O)N[C@@H](CO)C(=O)N[C@@H](C)C(=O)N[C@@H](CCCN=C(N)N)C(=O)N[C@@H](CCCCN)C(N)=O` for Nociceptin receptor (Rattus norvegicus).
Response line: -71

Prompt line: Identify the measured Emax of `C[C@H](NC(=O)CNC(=O)[C@@H](NC(=O)[C@H](Cc1ccccc1)NC(=O)CNC(=O)CNC(=O)[C@@H](N)Cc1ccccc1)[C@@H](C)O)C(=O)N[C@@H](CCCNC(=N)N)C(=O)N[C@@H](CCCCN)C(=O)N[C@@H](CO)C(=O)N[C@@H](C)C(=O)N[C@@H](CCCNC(=N)N)C(=O)N[C@@H](CCCCN)C(N)=O` for Nociceptin receptor (Rattus norvegicus).
Response line: -46

Prompt line: Identify the measured Emax of `C[C@H](NC(=O)CNC(=O)[C@@H](NC(=O)[C@H](Cc1ccccc1)NC(=O)CNC(=O)CNC(=O)[C@@H](N)Cc1ccccc1)[C@@H](C)O)C(=O)N[C@@H](CCCN=C(N)N)C(=O)N[C@@H](CCCN)C(=O)N[C@@H](CO)C(=O)N[C@@H](C)C(=O)N[C@@H](CCCN=C(N)N)C(=O)N[C@@H](CCCN)C(N)=O` for Nociceptin receptor (Rattus norvegicus).
Response line: -56

Prompt line: Identify the measured Emax of C[C@H](NC(=O)CNC(=O)[C@@H](NC(=O)[C@H](Cc1ccccc1)NC(=O)CNC(=O)CNC(=O)[C@@H](N)Cc1ccccc1)[C@@H](C)O)C(=O)N[C@@H](CCCN=C(N)N)C(=O)N[C@@H](CN)C(=O)N[C@@H](CO)C(=O)N[C@@H](C)C(=O)N[C@@H](CCCN=C(N)N)C(=O)N[C@@H](CN)C(N)=O (H-FGGFTGAR[Dap]SAR[Dap]-NH2) for Nociceptin receptor (Rattus norvegicus).
Response line: -54

====

measured.on: Nociceptin receptor (Rattus norvegicus) (UniProt P35370)
Sequence (P35370 whole entry): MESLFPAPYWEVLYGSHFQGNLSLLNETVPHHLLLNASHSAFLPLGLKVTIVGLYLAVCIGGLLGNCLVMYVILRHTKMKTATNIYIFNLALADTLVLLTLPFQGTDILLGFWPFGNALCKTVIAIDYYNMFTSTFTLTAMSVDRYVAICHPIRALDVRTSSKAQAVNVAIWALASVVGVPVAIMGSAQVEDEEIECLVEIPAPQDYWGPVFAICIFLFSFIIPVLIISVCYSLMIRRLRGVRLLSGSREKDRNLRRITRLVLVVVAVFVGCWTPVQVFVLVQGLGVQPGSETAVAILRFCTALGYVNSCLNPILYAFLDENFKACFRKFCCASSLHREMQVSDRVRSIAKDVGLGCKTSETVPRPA
protocol.text: Activity against LFES-evoked contraction of Wistar rat vas deferens relative to N/OFQ(1-13)NH2
Format: functional, tissue-based
Where a SMILES comes first, the peptide text is derived from it. [ ]: non-standard residue; d: D form. Dap = NC[C@H](N)C(=O)O
Kindly supply the reported Activity values for the records listed here.
Give only the figure.

Prompt line: Which Activity value belongs to `C[C@H](NC(=O)CNC(=O)[C@@H](NC(=O)[C@H](Cc1ccccc1)NC(=O)CNC(=O)CNC(=O)[C@@H](N)Cc1ccccc1)[C@@H](C)O)C(=O)N[C@@H](CCCN=C(N)N)C(=O)N[C@@H](CCCN)C(=O)N[C@@H](CO)C(=O)N[C@@H](C)C(=O)N[C@@H](CCCN=C(N)N)C(=O)N[C@@H](CCCCN)C(N)=O` ?
Response line: 2.45

Prompt line: Which Activity value belongs to C[C@H](NC(=O)CNC(=O)[C@@H](NC(=O)[C@H](Cc1ccccc1)NC(=O)CNC(=O)CNC(=O)[C@@H](N)Cc1ccccc1)[C@@H](C)O)C(=O)N[C@@H](CCCN=C(N)N)C(=O)N[C@@H](CN)C(=O)N[C@@H](CO)C(=O)N[C@@H](C)C(=O)N[C@@H](CCCN=C(N)N)C(=O)N[C@@H](CN)C(N)=O (H-FGGFTGAR[Dap]SAR[Dap]-NH2) ?
Response line: 0.25

Prompt line: Which Activity value belongs to `C[C@H](NC(=O)CNC(=O)[C@@H](NC(=O)[C@H](Cc1ccccc1)NC(=O)CNC(=O)CNC(=O)[C@@H](N)Cc1ccccc1)[C@@H](C)O)C(=O)N[C@@H](CCCNC(=N)N)C(=O)N[C@@H](CCCCN)C(=O)N[C@@H](CO)C(=O)N[C@@H](C)C(=O)N[C@@H](CCCNC(=N)N)C(=O)N[C@@H](CCCCN)C(N)=O` ?
Response line: 1

Prompt line: Which Activity value belongs to `C[C@H](NC(=O)CNC(=O)[C@@H](NC(=O)[C@H](Cc1ccccc1)NC(=O)CNC(=O)CNC(=O)[C@@H](N)Cc1ccccc1)[C@@H](C)O)C(=O)N[C@@H](CCCN=C(N)N)C(=O)N[C@@H](CCCN)C(=O)N[C@@H](CO)C(=O)N[C@@H](C)C(=O)N[C@@H](CCCN=C(N)N)C(=O)N[C@@H](CCCN)C(N)=O` ?
Response line: 1.41
